- Test system: BT-549 breast
- procedure details: NCI-60 one-dose screen, 48 h
- condition context: 10 µM unless noted
This is part of a sample that, as a whole, favours compounds with a hit. Of some 83,000 tested, about 20% had one in any assay. Activity calls are given as the source filed them. How the source made its calls: active means growth percent below 10; inactive means the rest.
# output must be one of active, inactive

Q: Would you mind telling me which call this test gave O=C1CNCCN1 ?
Ans: inactive

Q: Would you mind telling me which call this test gave COc1ccc(/C(=C\c2ccc3c(c2)OCO3)C(=O)Nc2nc3ccccc3s2)cc1OC ?
Ans: inactive

Q: Would you mind telling me which call this test gave Cn1cc(-c2csc(-c3cn(CCCN4CCCCC4)c4ccc(F)cc34)n2)c2cccnc21 ?
Ans: inactive

Q: Would you mind telling me which call this test gave C/C(=C(/c1ccccc1)c1ccc(N2C(=O)c3cccc4c(NCc5ccccc5)ccc(c34)C2=O)cc1)c1ccccc1 ?
Ans: inactive

Q: Would you mind telling me which call this test gave Cc1ccc(-c2nc([P+](c3ccccc3)(c3ccccc3)c3ccccc3)c(N3C[C@H]4C[C@H](C3)c3cccc(=O)n3C4)o2)cc1 ?
Ans: inactive

Q: Would you mind telling me which call this test gave COc1ccc(-c2n[nH]nc2-c2cc3ccccc3s2)cc1O ?
Ans: inactive

Q: Would you mind telling me which call this test gave C[C@H]1OC(=O)/C=C/[C@@H](O)[C@@H](O)CCCCCCCC[C@@H]1O ?
Ans: inactive

Q: Would you mind telling me which call this test gave COc1cccc(-c2nn(-c3ccccc3)cc2-c2ccnc(NCCCNS(=O)(=O)c3ccc(Br)cc3)c2)c1 ?
Ans: inactive

Q: Would you mind telling me which call this test gave N=c1c(S(=O)(=O)c2ccccc2)cc2c(=O)n3ccccc3nc2n1C1CCCC1 ?
Ans: inactive

Q: Would you mind telling me which call this test gave C#Cc1cc2c(N)c(C(=O)c3cc(OC)c(OC)c(OC)c3)[nH]c2cc1OC ?
Ans: inactive

Q: Would you mind telling me which call this test gave COC(=O)[C@]12CC[C@@H](C)[C@H](C)[C@@H]1C1=CC[C@@H]3[C@@](C)(CC#N)C4=C(C[C@@]3(C)[C@]1(C)CC2)OC[C@]4(C)C=O ?
Ans: active

Q: Would you mind telling me which call this test gave CC(C)(C)c1[nH]nc2c1C(c1cc3ccccc3[nH]c1=O)Nc1cc(C(=O)OCc3ccccc3)ccc1N2 (centres undefined) ?
Ans: inactive

Q: Would you mind telling me which call this test gave COc1ccc(C(=O)c2ccc(C)cc2)c(OC)c1OC ?
Ans: inactive

Q: Would you mind telling me which call this test gave CC(C)(C)c1ccc(OCCCCCCCN2CCNCC2)cc1 ?
Ans: inactive

Q: Would you mind telling me which call this test gave COc1ccc(-c2nc(Nc3ccc(-c4nc5ccccc5[nH]4)cc3)nc(N3CCOCC3)n2)cc1 ?
Ans: active

Q: Would you mind telling me which call this test gave CC(C)/C=C/CC[C@](C)(O)[C@H]1CC[C@]2(C)[C@@H]1CC[C@@H]1[C@@]3(C)C/C(=C/c4cccc(C(F)(F)F)c4)C(=O)C(C)(C)[C@@H]3CC[C@]12C ?
Ans: inactive

Q: Would you mind telling me which call this test gave CCCCCCCC(=O)SCC/C=C/[C@@H]1CC(=O)NCc2cccc(n2)CN(Cc2ccc3ccccc3c2)CC(=O)N[C@@H](C(C)C)C(=O)O1 ?
Ans: inactive

Q: Would you mind telling me which call this test gave CN1CCN(c2ccc3nc(-c4[nH]ncc4Nc4ncnc5c4OCCCN5)[nH]c3c2)CC1 ?
Ans: active

Q: Would you mind telling me which call this test gave NC1=NN(c2ccccc2)C(=O)/C1=C/c1ccc(Cl)cc1 ?
Ans: inactive

Q: Would you mind telling me which call this test gave Cn1cc(-c2csc(-c3c[nH]c4ccccc34)n2)c2cccnc21 ?
Ans: inactive

Q: Would you mind telling me which call this test gave COc1ccc(C2NC(=O)Nc3ccccc32)c(OC)c1 (centres undefined) ?
Ans: inactive

Q: Would you mind telling me which call this test gave COc1cc2c(cc1-c1c(C)noc1C)ncc1nc(C3CCC(F)(F)CC3)n([C@@H](C)COC(F)F)c12 ?
Ans: inactive

Q: Would you mind telling me which call this test gave Cc1ccc(-c2nc3ccc(Cl)cc3c(=O)n2N2C(=O)CSC2c2ccccc2Cl)cc1 (centres undefined) ?
Ans: inactive

Q: Would you mind telling me which call this test gave COc1ccc(/C=C(\C#N)c2cc3ccccc3n2S(C)(=O)=O)cc1 ?
Ans: inactive

Q: Would you mind telling me which call this test gave CC(C)(C)n1cc(-c2ccnc(NCCCNS(=O)(=O)c3ccc(Cl)cc3)c2)c(-c2cccc(F)c2)n1 ?
Ans: inactive

Q: Would you mind telling me which call this test gave C=C1C(=O)O[C@H]2[C@H]1CC/C(COC(=O)NCc1c[nH]c3ccccc13)=C\CC[C@@]1(C)O[C@@H]21 ?
Ans: inactive

Q: Would you mind telling me which call this test gave COc1cc(-c2cc3ncccc3c3nc(OCCN(C)C)c4cccnc4c23)cc(OC)c1OC ?
Ans: inactive

Q: Would you mind telling me which call this test gave COc1cnc2c(c1)C(=O)c1c-2n(CCCNC(C)C)c(=O)c2cc([N+](=O)[O-])ccc12 ?
Ans: active

Q: Would you mind telling me which call this test gave C=C(C)[C@@H]1CC[C@]2(C=NCCCNCCCCNCCCN)CC[C@]3(C)[C@H](CC[C@@H]4[C@@]5(C)CCCNC(C)(C)[C@@H]5CC[C@]43C)[C@@H]12 ?
Ans: inactive

Q: Would you mind telling me which call this test gave O=c1c2sc3ncc(Br)cc3c2ncn1-c1cccc(Cl)c1 ?
Ans: inactive

Q: Would you mind telling me which call this test gave Cc1nn(-c2ccc(Br)cc2)c2nc3[nH]c(=O)[nH]c(=O)c3nc12 ?
Ans: inactive

Q: Would you mind telling me which call this test gave CCCCC[C@H]1CC=C2C(=O)C(Cl)=C[C@@H]2CC=CCCCC(=O)O[C@@H](CCCCC)CC=C2C(=O)C(Cl)=C[C@@H]2CC=CCCCC(=O)O[C@@H](CCCCC)CC=C2C(=O)C(Cl)=C[C@@H]2CC=CCCCC(=O)O1 ?
Ans: inactive

Q: Would you mind telling me which call this test gave CN(CSc1ccc(Cl)cc1)c1ccc(CSc2ccc(Cl)cc2)cc1 ?
Ans: inactive

Q: Would you mind telling me which call this test gave COC(=O)[C@]12CC[C@@H](C)[C@H](C)[C@@H]1C1=CC[C@@H]3[C@@]4(C)CC(=O)[C@H](OC(=O)c5ccco5)[C@@]5(C)COC(=C45)C[C@@]3(C)[C@]1(C)CC2 ?
Ans: inactive
